# Assay type: physicochemical
Quantity Measured: amount of neat magnolol analog solubilized by dimethyl isosorbide

>  <Compound Smiles>
CC(C)c1ccc(O)c(-c2cc(C(C)C)ccc2O)c1

>  <Observed Value>
up to 200 g per liter

$$$$
>  <Compound Smiles>
CCCc1ccc(O)c(-c2cc(CCC)ccc2O)c1

>  <Observed Value>
up to 200 g per liter

$$$$
